# Assay Comment: recombinant barcode read abundance after kanamycin selection (control-corrected) (log10(CPM+1)); higher = more efficient recombination; sequences stand for … in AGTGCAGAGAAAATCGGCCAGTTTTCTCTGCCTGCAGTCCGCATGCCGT…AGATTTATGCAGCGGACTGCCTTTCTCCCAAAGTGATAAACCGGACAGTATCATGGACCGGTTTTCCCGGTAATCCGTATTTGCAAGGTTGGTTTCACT; site = the 11-nt target
Property Name: recombinant barcode read abundance (log10)

The examples below pair each entry with its known result.
Data request: // query recombinant barcode read abundance (log10) value for entry CTCGGATCTTGGGTTCTAACCTGTTGCTT (site CTCGGATCTTA)
Data returned: 0.371

Data request: Requested field: recombinant barcode read abundance (log10). Item: GTCCACTCTTGGGTTCTAACCTGTTGCTT (site GTCCAGTCTAC)
Data returned: 0

Further cases:
Data request: # recombinant barcode read abundance (log10) lookup, item GGACGTGCTTGGGTTCTAACCTGTTGCCT (site GGACGTGCTAG)
Data returned: 1.92

====

Some sequences, each annotated with its measured recombinant barcode read abundance (log10).
# Assay Comment: recombinant barcode read abundance after kanamycin selection (control-corrected) (log10(CPM+1)); higher = more efficient recombination; sequences stand for … in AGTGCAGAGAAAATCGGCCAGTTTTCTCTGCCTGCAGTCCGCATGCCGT…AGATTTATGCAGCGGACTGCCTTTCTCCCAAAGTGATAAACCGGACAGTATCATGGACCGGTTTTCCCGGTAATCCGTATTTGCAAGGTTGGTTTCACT; site = the 11-nt target
No unit in the answer, please; the number alone is enough.

Data request: Name the reported recombinant barcode read abundance (log10) value associated with the sequence ACATTGTCTTGGGTTCTAACCTGTTGCCT (site ACCTTGTCTAG)
Data returned: 0.0705

Data request: Need recombinant barcode read abundance (log10) of GGTCCATCTTGGGTTCTAACCTGTTGCCT (site GGTCCATCTAG) , thanks.
Data returned: 0.161

Data request: Bench note: what recombinant barcode read abundance (log10) did GTGCACCCTTGGGTTCTAACCTGTTGCTT (site GGGCATCCTAA) show?
Data returned: 0.115

Data request: Quick one: recombinant barcode read abundance (log10) for ACTTGGCCTTGGGTTCTAACCTGTTGCTG (site ACGTGGCCTCA) ?
Data returned: 0.111

Data request: Quick check: recombinant barcode read abundance (log10) of GACTAAGCTTGGGTTCTAACCTGTTGCGG (site GACTAAGCTCC) ?
Data returned: 2.39

Data request: Name the recorded recombinant barcode read abundance (log10) for TAAGTCCCTTGGGTTCTAACCTGTTGCCT (site CAAGTCCCTAG) .
Data returned: 0.583

Data request: # query: recombinant barcode read abundance (log10) of entry TAGACGACTTGGGTTCTAACCTGTTGCAC (site TAGACGACTGT)
Data returned: 1.57

Data request: What does the data say about its recombinant barcode read abundance (log10)? Entry: TTAAGCTCTTGGGTTCTAACCTGTTGCCT (site CTAAGCTCTAG)
Data returned: 0.197

====

Listed sequences paired with reported recombinant barcode read abundance (log10)
# Assay Comment: recombinant barcode read abundance after kanamycin selection (control-corrected) (log10(CPM+1)); higher = more efficient recombination; sequences stand for … in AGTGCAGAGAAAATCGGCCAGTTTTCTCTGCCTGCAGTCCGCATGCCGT…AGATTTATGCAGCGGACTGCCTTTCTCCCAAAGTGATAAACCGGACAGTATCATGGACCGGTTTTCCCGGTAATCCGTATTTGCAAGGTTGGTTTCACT; site = the 11-nt target

Worked cases, answers included:
Data request: Which measured recombinant barcode read abundance (log10) value corresponds to TCCTAGTCTTGGGTTCTAACCTGTTGCAG (site TCCTAGTCTCT) ?
Data returned: 0.392

Data request: Quick check: recombinant barcode read abundance (log10) of CCTAGCACTTGGGTTCTAACCTGTTGCGA (site CCTAGCACTTC) ?
Data returned: 0.939

Data request: What does the data say about its recombinant barcode read abundance (log10)? Entry: GCCGAGGCTTGGGTTCTAACCTGTTGCTG (site GTCTAGGCTCA)
Data returned: 0.326

Data request: Item under review: TAGAACACTTGGGTTCTAACCTGTTGCTG (site TAGAACACTGA) . Reported recombinant barcode read abundance (log10)?
Data returned: 0.132

Data request: Which recombinant barcode read abundance (log10) reading was recorded for the sequence GAGACGGCTTGGGTTCTAACCTGTTGCTT (site GAGACGGCTAA) ?
Data returned: 1.22

Data request: For TGAGACTCTTGGGTTCTAACCTGTTGCCT (site TGAGACTCTAG) , what is its reported recombinant barcode read abundance (log10)?
Data returned: 2.2

Data request: What measured recombinant barcode read abundance (log10) goes with TATGACGCTTGGGTTCTAACCTGTTGCCT (site TAGGACGCTAG) ?
Data returned: 0.00539

Data request: // query recombinant barcode read abundance (log10) value for entry GCGTGTCCTTGGGTTCTAACCTGTTGCCA (site GCGTGTCCTTG)
Data returned: 0.335

Data request: Please report the recorded recombinant barcode read abundance (log10) for TAGATTACTTGGGTTCTAACCTGTTGCCT (site TAGATTACTAG) .
Data returned: 0.178

Data request: So what does the record say about recombinant barcode read abundance (log10) for AATGGGGCTTGGGTTCTAACCTGTTGCCT (site AATGGGGCTAG) ?
Data returned: 0.79

Next:
Data request: Bench note: what recombinant barcode read abundance (log10) did GCATACACTTGGGTTCTAACCTGTTGCCA (site TGCAGGGCTCC) show?
Data returned: 0.0903

====

Below, each of the sequences is paired with its reported recombinant UMI read abundance (log10) value.
# Assay Comment: recombinant UMI read abundance after kanamycin selection (control-corrected) (log10(CPM+1)); higher = more efficient recombination; extreme values may be limits of the assay; sequences stand for … in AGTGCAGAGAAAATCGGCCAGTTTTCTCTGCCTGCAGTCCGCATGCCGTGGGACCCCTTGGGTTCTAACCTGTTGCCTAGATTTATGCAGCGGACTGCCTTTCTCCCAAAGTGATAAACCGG…AGGTTGGTTTCACT; site = the 11-nt donor
Answer as a number with no unit attached.

Data request: Could you tell me which recombinant UMI read abundance (log10) is on file for CAATTCCCATGGACCGGTTTTCCCGGTAATCCGTATTTGCA (site CAATTCCCTTG) ?
Data returned: 1.27

Data request: Given the entry TAAGCTGCATGGACCGGTTTTCCCGGTAATCCGTATTTGTG (site TCAGCTGCTCA) , report its measured recombinant UMI read abundance (log10).
Data returned: 0.00238

Data request: Recorded recombinant UMI read abundance (log10) for CTGCTACCATGGACCGGTTTTCCCGGTAATCCGTATTTGAT (site CTGCTACCTAA) , please?
Data returned: 0.0178

New cases:
Data request: Form field: reported recombinant UMI read abundance (log10) of CGTACCGCATGGACCGGTTTTCCCGGTAATCCGTATTTGTC (site CGTACCGCTGA)
Data returned: 2.78

Data request: // lookup recombinant UMI read abundance (log10) for CGCTTGTCATGGACCGGTTTTCCCGGTAATCCGTATTTGCG (site CGCTTGTCTCG)
Data returned: 1.46

====

# Assay Comment: recombinant UMI read abundance after kanamycin selection (control-corrected) (log10(CPM+1)); higher = more efficient recombination; extreme values may be limits of the assay; sequences stand for … in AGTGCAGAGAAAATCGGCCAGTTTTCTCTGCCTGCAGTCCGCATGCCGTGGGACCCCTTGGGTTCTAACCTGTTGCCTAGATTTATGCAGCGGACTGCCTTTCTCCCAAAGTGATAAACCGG…AGGTTGGTTTCACT; site = the 11-nt donor
Property Name: recombinant UMI read abundance (log10)
Lab note: record the figure alone, no unit after it.

Look over these answered cases.
Data request: Which recombinant UMI read abundance (log10) reading was recorded for the sequence GGTTAGACATGGACCGGTTTTCCCGGTAATCCGTATTTGCC (site GGTTAGACTGG) ?
Data returned: 1.9

Data request: Form field: reported recombinant UMI read abundance (log10) of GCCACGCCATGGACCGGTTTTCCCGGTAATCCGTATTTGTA (site GCAACGCCTTA)
Data returned: 0

Data request: Which recombinant UMI read abundance (log10) is listed for TAGGAATCATGGACCGGTTTTCCCGGTAATCCGTATTTGAG (site TAGGAATCTCG) ?
Data returned: 1.36

Data request: Name the recorded recombinant UMI read abundance (log10) for ACTAGGACATGGACCGGTTTTCCCGGTAATCCGTATTTGAG (site ACTAGGACTCT) .
Data returned: 2.15

Data request: What does the data say about its recombinant UMI read abundance (log10)? Entry: CTACCAACATGGACCGGTTTTCCCGGTAATCCGTATTTGGA (site CTACGAACTTC)
Data returned: 0

Others:
Data request: Return reported recombinant UMI read abundance (log10); argument: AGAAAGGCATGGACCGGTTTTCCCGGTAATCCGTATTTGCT (site AGACAGGCTAG)
Data returned: 0
